Sourced from patent US20250171534A1

- Measured on: T1, LILRB1-ECD-HIS (SinoBiological Cat #: 16014-H02H) (human, UniProt Q8NHL6 24-461)
- T1 construct: Bought protein; also called monomeric antigen LILRB1-ECD-HIS; not shown: His tag
- Assay details: SPR (Carterra LSA), antibody captured, antigen injected;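 also: kd obtained from kinetic analysis of antibody binding to the antigen, with association and dissociation phases fitted in the instrument software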
Criterion: Kd strictly under 0.7 nM. Met: criterion met. Not met: criterion not met.

{"Binder": "#41 (antibody, human IgG1, V domains shown, also called D2M002-041) VH: DVQLQQSGAELMKPGASVKISCKATGYTFSSSWIEWVKQRPGHGLEWIGEILPGSGNTSYNEKFKGKATFTADTSSSAAYMQLSSLTSEDSAVYYCARSGLYYDYGGFAYWGQGTLVTVSA VL: DIVLTQSPASLAVSLGQRATISCRASESVDTYGNSFMHWYQQKPGQPPKLLIYRTSNLESGIPARFSGSGSRTDFTLTINPVEADDVATYYCQQSNEDPFTFGSGTKLEIK", "Assigned class": "criterion not met"}
{"Binder": "#12 (antibody, human IgG1, V domains shown, also called D2M002-012) VH: QIQLLQSGAELMKPGASVKISCKATGYTFSNYWIEWVKQRPGHGLEWIGEILPGSGSTNYNEKFKGKATFTADTSSNTAYMQLSSLTSEDSAVYYCARSGAGGYDSGAFAYWGQGTLVTVSS VL: DIVLTQSPASLAVSLGQRATISCRASESVDSYGNSFMHWYQQKPGQPPKLLIYRTSNLESGIPARFSGSGSRTDFTLTINPVEADDVAAYYCQQSNEDPWTFGGGTKLEIK", "Assigned class": "criterion not met"}
{"Binder": "D2M002-026 (antibody, V domains shown, Hit; also called clone #26) VH: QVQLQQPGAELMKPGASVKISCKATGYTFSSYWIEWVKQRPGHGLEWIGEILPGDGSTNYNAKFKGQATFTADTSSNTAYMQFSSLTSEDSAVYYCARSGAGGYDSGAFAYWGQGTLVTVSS VL: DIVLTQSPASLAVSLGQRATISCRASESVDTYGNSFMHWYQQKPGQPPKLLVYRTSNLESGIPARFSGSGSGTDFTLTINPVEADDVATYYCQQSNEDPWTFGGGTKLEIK", "Assigned class": "criterion not met"}
{"Binder": "#27 (antibody, human IgG1, V domains shown, also called D2M002-027) VH: EVQLQQSGAELMKPGASVKISCKITGYTFSSYWIEWVKQRPGHDLEWIGEILPGSGSTNYNEKFKGKASFTADTSSNTAYMQLNSLTSEDSAVYYCARSGAGGYDSGAFAYWGQGTLVTVSA VL: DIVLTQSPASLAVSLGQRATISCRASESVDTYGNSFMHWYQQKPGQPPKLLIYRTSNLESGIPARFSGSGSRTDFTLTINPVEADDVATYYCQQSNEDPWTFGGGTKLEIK", "Assigned class": "criterion met"}

Let's switch to this binder now.
Determine whether this binder shows Kd lower than 0.7 nM (ties excluded): #45 (antibody, human IgG1, V domains shown, also called D2M002-045) VH: QIQLLQSGPELKKPGETVKISCKASGYTFTDYSMHWVKQAPGKGLKWMGWINTETGEPTYADDFKGRFAFSLETSASTAYLQINNLKNEDTATYFCARVVRRGYFDVWGAGTTVTVSS VL: DIQMTQSPASLSASVGETVTITCRASGNIHNYLAWYQQKQGKSPQVLVYNAKTLADGVPSRFSGSGSGTQYSLKINSLQPEDFGSYYCQHFWSTPFTFGSGTKLEIK
criterion not met
